# Test system: Staphylococcus aureus
# Experiment: Antibacterial activity against methicillin-resistant Staphylococcus aureus N315 after 24 hrs by micro broth dilution assay
# Format: functional
# Stated conditions: N315, 24 h
Mark true only when MIC stays strictly below 30 µg/mL. Values equal to the cut-off are false.

Reference set (3 entries):
O=C(/C=C/c1ccc(Cl)cc1Cl)c1nc2ccccc2[nH]1
false
CCCCCCCn1c(C(=O)/C=C/c2ccc(C)cc2)nc2ccccc21
true
CCCCCCn1c(-c2cc(-c3ccc(Cl)cc3)nc(N)n2)nc2ccccc21
false

Lookup: Confirm or reject: MIC of CCCCCCCCn1c(C(=O)/C=C/c2ccc(Cl)cc2Cl)nc2ccccc21 lies strictly below 30 µg/mL
Found: false

====

# System: Saccharomyces cerevisiae
# Experiment: Antifungal against Saccharomyces cerevisiae after 24 hrs by two fold serial dilution method
# Type: functional
Documented MIC across a set of molecules
Supply the numeric figure in µg/mL, leaving out any unit text.

O=C(/C=C/c1ccc(Cl)cc1Cl)c1nc2ccccc2[nH]1
16
CCCCn1c(-c2cc(-c3ccc(Cl)cc3Cl)nc(N)n2)nc2ccccc21
32
CCCCCCCCn1c(-c2cc(-c3ccc(F)cc3)nc(N)n2)nc2ccccc21
16
CCCCCCCCn1c(C(=O)/C=C/c2ccc(Cl)cc2Cl)nc2ccccc21
512
O=C(/C=C/c1ccc(Cl)cc1)c1nc2ccccc2[nH]1
128

Lookup: Which MIC value belongs to Nc1nc(-c2nc3ccccc3[nH]2)cc(-c2ccc(Cl)cc2Cl)n1 ?
Found: 8

Lookup: MIC lookup needed for CCCCCCn1c(C(=O)/C=C/c2ccc(F)cc2)nc2ccccc21 , thanks.
Found: 512

Lookup: Query (molecule): Cc1ccc(-c2cc(-c3nc4ccccc4[nH]3)nc(N)n2)cc1 ; field requested: MIC
Found: 4

Lookup: What does the record list as MIC for Nc1nc(-c2ccc(F)cc2)cc(-c2nc3ccccc3[nH]2)n1 ?
Found: 64

Lookup: Data request, read-out MIC, for CCCCn1c(C(=O)/C=C/c2ccc(Cl)cc2)nc2ccccc21
Found: 16

Lookup: Value lookup for MIC; key = CCCCCCCCn1c(-c2cc(-c3ccc(Cl)cc3)nc(N)n2)nc2ccccc21
Found: 8

====

Known MIC of a selection of compounds
# Test system: Pseudomonas aeruginosa
# Experiment: Antibacterial activity against Pseudomonas aeruginosa after 24 hrs by micro broth dilution assay
# Assay type: functional
Give just the number in µg/mL; leave the unit off.

Would you please look over these solved cases?
CCCCCCCn1c(C(=O)/C=C/c2ccc(F)cc2)nc2ccccc21
512
CCCCn1c(C(=O)/C=C/c2ccc(Cl)cc2)nc2ccccc21
512
Nc1nc(-c2ccc(F)cc2)cc(-c2nc3ccccc3[nH]2)n1
16
CCCCCCCCn1c(C(=O)/C=C/c2ccc(C)cc2)nc2ccccc21
512
CCCCCCn1c(-c2cc(-c3ccc(Cl)cc3)nc(N)n2)nc2ccccc21
512

Lookup: Reported MIC for CCCCn1c(-c2cc(-c3ccc(Cl)cc3Cl)nc(N)n2)nc2ccccc21 : what is it?
Found: 128

Lookup: Would you mind telling me what MIC value was observed for CCCCn1c(C(=O)/C=C/c2ccc(F)cc2)nc2ccccc21 ?
Found: 0.5

Lookup: Can you look up the measured MIC of CCCCCCn1c(-c2cc(-c3ccc(C)cc3)nc(N)n2)nc2ccccc21 for me?
Found: 64

Lookup: Value lookup for MIC; key = Cc1ccc(-c2cc(-c3nc4ccccc4[nH]3)nc(N)n2)cc1
Found: 4

Lookup: Requested field: MIC. Item: CCCCCCCCn1c(C(=O)/C=C/c2ccc(F)cc2)nc2ccccc21
Found: 512

Lookup: So what's the measured MIC for this one? CCCCn1c(-c2cc(-c3ccc(Cl)cc3)nc(N)n2)nc2ccccc21
Found: 64

Lookup: Could you tell me which MIC is on file for CCCCCCCCn1c(-c2cc(-c3ccc(C)cc3)nc(N)n2)nc2ccccc21 ?
Found: 512

Lookup: Find the recorded MIC belonging to CCCCCCn1c(C(=O)/C=C/c2ccc(Cl)cc2Cl)nc2ccccc21 and report it.
Found: 512
